# Tested on: SF-539 CNS
# measurement.notes: NCI tumour cell line growth inhibition, 48 h
Tag: MET if measured TGI is not below 40 µM, NOT MET if it is.

Observe how each entry below is paired with its result.
1) COc1ccc2c(c1)/C(=C\c1c[nH]c3ccc(OC)cc13)C(=O)N2; NOT MET
2) COc1ccc(-c2onc(-c3c(C)cc(C)cc3C)c2C2=NCCN2)cc1; MET
3) Nc1ncnc2c1nnn2C1C=C(CO)C(O)C1O (configuration not stated); MET
4) O=C1/C(=C/c2cccc(Br)c2)COc2ccc(O)c(O)c21; NOT MET
5) C#CCSc1nc(N)c2ncn(C3OC(COP(=O)(O)O)C(O)C3O)c2n1 (configuration not stated); MET

In: Identify whether the reported TGI of the following molecule is 40 µM or greater: CCN(CC)CCCC(C)Nc1c(-c2ccccc2)cnc2cc(Cl)ccc12 (configuration not stated)
Out: NOT MET

In: Identify whether the reported TGI of the following molecule is 40 µM or greater: `COC(=O)/C(=C\c1ccco1)P(=O)(OC)OC`
Out: MET

In: Identify whether the reported TGI of the following molecule is 40 µM or greater: `O=c1c(-c2ccccc2)coc2cc(OC/C(=N/O)c3ccc(F)cc3)ccc12`
Out: NOT MET

In: Identify whether the reported TGI of the following molecule is 40 µM or greater: `CNC(=S)N/N=C(\C)c1nc2ncccc2[nH]1`
Out: MET

In: Identify whether the reported TGI of the following molecule is 40 µM or greater: `O=C(COc1ccc(Cl)cc1)N1CCN(C(=O)COc2ccc(Cl)cc2)c2ccccc21`
Out: MET

In: Identify whether the reported TGI of the following molecule is 40 µM or greater: `CN1CCN(c2cc3nc4ccccc4n(-c4ccc(Cl)cc4)c-3cc2=N)CC1`
Out: MET

In: Identify whether the reported TGI of the following molecule is 40 µM or greater: `O=C(N/N=C/c1ccc(Cl)cc1)c1cc(I)cc(I)c1O`
Out: MET

In: Identify whether the reported TGI of the following molecule is 40 µM or greater: COc1ccc2c(c1)CC1Cc3ccccc3CCN1C2 (configuration not stated)
Out: MET

In: Identify whether the reported TGI of the following molecule is 40 µM or greater: `Cc1ccc(N=C2SC(c3ccc(C)cc3)(c3ccc(C)cc3)c3ccccc32)cc1`
Out: MET

In: Identify whether the reported TGI of the following molecule is 40 µM or greater: `Nc1cc2cccc[n+]2c2cccc(Cl)c12`
Out: MET

In: Identify whether the reported TGI of the following molecule is 40 µM or greater: Oc1ccc(Cl)cc1C1=N/C(=N\C/N=C2\N=C(c3cc(Cl)ccc3O)CC(c3ccccc3)N2)NC(c2ccccc2)C1 (configuration not stated)
Out: MET

In: Identify whether the reported TGI of the following molecule is 40 µM or greater: `CCC(=O)NC(OCC1(CC)COC1)(C(F)(F)F)C(F)(F)F`
Out: MET
